Source of measurements: patent US6348487B1

Label TRUE when melting point is strictly below 200 °C; otherwise label FALSE.

Consider the following illustrative entries.
CN(CCN1CCCCC1)c1ccc(C2=Nc3ccc(Cl)cc3C2)cc1    TRUE
CN(CCN1CCCCC1)c1ccc(-c2nc3ccc(Cl)c(Cl)c3[nH]2)cc1    TRUE
Cc1ccc2nc(-c3ccc(N(C)CCN4CCCCC4)cc3)[nH]c2c1    TRUE

Now look at this entry.
In plain terms, does COc1ccc2nc(-c3ccc(N(C)CCN4CCCCC4)cc3)[nH]c2c1.Cl.Cl come in under 200 °C for melting point?
FALSE

----------
Below are IC50 values measured for UniProt P41597.
Sequence (P41597 1-360 isoform P41597-2): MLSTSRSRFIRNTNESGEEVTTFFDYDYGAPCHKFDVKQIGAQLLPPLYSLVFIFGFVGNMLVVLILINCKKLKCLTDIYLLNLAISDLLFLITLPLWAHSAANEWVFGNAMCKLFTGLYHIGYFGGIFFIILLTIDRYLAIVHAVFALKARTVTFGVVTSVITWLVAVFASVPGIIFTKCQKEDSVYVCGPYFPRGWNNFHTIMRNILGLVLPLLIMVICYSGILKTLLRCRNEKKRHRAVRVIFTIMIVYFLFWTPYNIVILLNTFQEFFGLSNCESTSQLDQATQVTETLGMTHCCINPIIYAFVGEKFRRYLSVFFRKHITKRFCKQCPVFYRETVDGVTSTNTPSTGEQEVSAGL
Field: numeric (µM). Do not append units.

Consider the following illustrative entries.
CN(CCN1CCCCC1)c1ccc(-c2nc3ccc(F)cc3[nH]2)cc1    8.6
CN(CCN1CCCCC1)c1ccc(-c2nc3ccc(C(C)(C)C)cc3[nH]2)cc1    3.1
CN(CCN1CCCCC1)c1ccc(-c2cc3cc(Cl)ccc3[nH]2)cc1    9.9
CN(CCN1CCCCC1)c1ccc(-c2nc3cc(Cl)c(Cl)cc3[nH]2)cc1 [drawing 9]    13.4
CCN(CC)CCN(CCN(CC)CC)c1ccc(-c2nc3cc(Cl)c(Cl)cc3[nH]2)cc1 [drawing 8]    11.1

Given item CN(CCN1CCCCC1)c1ccc(-c2nc3cc4ccccc4cc3[nH]2)cc1 , the value recorded as its IC50 is 12.1

Given item Cc1cc2nc(-c3ccc(N(C)CCN4CCCCC4)cc3)[nH]c2cc1C [drawing 14] , the value recorded as its IC50 is 6.3

Given item Cc1ccc2nc(-c3ccc(N(C)CCN4CCCCC4)cc3)[nH]c2c1 [drawing 13] , the value recorded as its IC50 is 8.7

Given item CN(CCN1CCCCC1)c1ccc(-c2nc3ccc(C(=O)c4ccccc4)cc3[nH]2)cc1 , the value recorded as its IC50 is 11.3

Given item CN(CCN1CCCCC1)c1ccc(-c2nc3ccc(-c4ccccc4)cc3[nH]2)cc1 , the value recorded as its IC50 is 15.1
